- System: Surinam grass
- PROCEDURE DETAILS: Test B pre-/postemergence herbicide test
- Format: in vivo, Urochloa decumbens
- CONDITION SET: 125 g ai/ha; 0 is no effect, 100 is complete control; preemergence
QUANTITY NAME: Plant response rating (0 to 100 scale), Surinam Grass
Lab note: record just the number, no unit beside it.

CCC1=NN(C(C)(C)C)CC1C(=O)Nc1cc(C(=O)N2CCCC2)ccc1F (racemic) [Compound 341] : 100
CCc1nn(C(C)(C)CC)nc1C(=O)Nc1cccc(C(=O)N(C)C)c1 [Compound 372] : 50
C#CCOc1cccc(NC(=O)c2cc(C(C)(C)C)nn2CC)c1 [Compound 411] : 10

Briefly, Plant response rating (0 to 100 scale), Surinam Grass measured for CCc1nn(C(C)(C)CC)nc1C(=O)Nc1cccc(C(=O)N2CC=CC2)c1 [Compound 369] : 0

Short answer for CCNC(=O)c1cccc(NC(=O)c2cc(C(C)(C)C)n[nH]2)c1 [Compound 351] : Plant response rating (0 to 100 scale), Surinam Grass was 0

----------
Attribute: Wheat plant response rating
- Tested on: wheat
- PROCEDURE DETAILS: Test B postemergence herbicide test
- Assay type: in vivo, Triticum aestivum
- Parameters: key: 0 = no effect, 100 = complete control
- CONDITION SET: postemergence, 125 g ai/ha; visual rating, scale 0 (no effect) to 100 (complete control)
Number only, no unit.

CCn1nc(C(C)(C)C)cc1C(=O)Nc1cc(C(=O)OC(C)C)c(F)cc1F : 30
CC(=NO)c1cccc(NC(=O)c2cc(C(C)(C)C)nn2C)c1 : 0
COc1ccc(C(C)=NO)cc1NC(=O)c1cc(C(C)(C)C)nn1C : 0

# lookup: CCn1nc(C(C)(C)C)cc1C(=O)Nc1cccc(C(=O)N2CC=CC2)c1 on wheat, Wheat plant response rating = 20

wheat data for CCNC(=O)c1ccc(F)c(NC(=O)c2c(F)c(C(C)(C)C)nn2CC)c1 ; its Wheat plant response rating: 20

Item CCCOC(=O)c1cc(NC(=O)c2cc(C(C)(C)C)nn2CC)c(F)cc1F ; assay system wheat; Wheat plant response rating reported as 30

GET /values?item= C=CCOC(=O)c1cccc(NC(=O)c2cc(C(C)(C)C)nn2CC)c1 &system= wheat returns Wheat plant response rating: 50

Record CCc1cn(C(C)(C)C)nc1C(=O)Nc1cc(C(=O)N(C)CC)ccn1 has wheat Wheat plant response rating equal to 0

Entry CCn1nc(C(C)(C)C)cc1C(=O)Nc1ccnc(C(=O)NCCF)c1 : Wheat plant response rating on wheat = 20

----------
Items are presented alongside their recorded Corn plant response rating.
- Tested on: corn
- PROCEDURE DETAILS: Test B pre-/postemergence herbicide test
- Type: in vivo, Zea mays
- CONDITION SET: postemergence, 125 g ai/ha; visual rating, scale 0 (no effect) to 100 (complete control)
Please give the numeric answer without any surrounding text.

CCn1nc(C(C)(C)C)cc1C(=O)Nc1cccc(C(=O)N2CC=CC2)c1 : 0
CCn1nc(C(C)(C)C)cc1C(=O)Nc1cccc2c1CNC2=O : 10
COc1ccc(C(C)=NO)cc1NC(=O)c1cc(C(C)(C)C)nn1C : 0
CCn1nc(C(C)(C)C)cc1C(=O)Nc1cccc(C(=O)OC)c1C : 0
CCn1nc(C(C)(C)C)cc1C(=O)Nc1cccc(OC(F)(F)F)c1 : 30

# Corn plant response rating of C#CCNC(=O)c1cccc(NC(=O)c2sc(C(C)(C)C)nc2CC)n1 = 0

The reported Corn plant response rating of the compound CCn1nc(C(C)(C)C)cc1C(=O)Nc1cccc(S(C)(=O)=O)c1 was 10

Corn plant response rating reading for CCn1nc(C(C)(C)C)cc1C(=O)Nc1ccc(F)c(C(=O)NCCF)c1 : 10

Corn plant response rating reported for this compound C#CCNC(=O)c1cccc(NC(=O)c2sc(C(C)(C)C)nc2C)c1 : 0

So, CCn1nc(C(C)(C)C)cc1C(=O)Nc1cc(C(N)=O)ccc1F ? Its Corn plant response rating was 0

# Corn plant response rating of CCn1nc(C(C)(C)C)cc1C(=O)Nc1cc(C(=O)OC(C)C)c(OC)cc1F = 10

For record CCN(CC)C(=O)c1cc(NC(=O)c2cc(C(C)(C)C)nn2CC)ccc1C the listed Corn plant response rating is 0

So, CCc1nn(C(C)(C)C)cc1C(=O)Nc1cc(C(=O)NC)ccc1F ? Its Corn plant response rating was 0

# compound CCn1nc(C(C)(C)C)cc1C(=O)Nc1nccc(OC)n1 ; its Corn plant response rating = 0

----------
Pigweed plant response rating for assorted compounds
- Test system: redroot pigweed
- PROCEDURE DETAILS: Test A pre-/postemergence herbicide test
- Format: in vivo, Amaranthus retroflexus
- CONDITION SET: Preemergence, 500 g ai/ha; visual rating, 0 to 100 scale (0 no effect, 100 complete control)
- From the text: […] Plants ranged in height from 2 to 10 cm and were in the one- to two-leaf stage for the postemergence treatment. Treated plants and untreated controls were maintained in a greenhouse for approximately ten days, after which time all treated plants were compared to untreated controls and visually evaluated for injury. […]
// no unit, no text: just the number

Worked examples follow.
C#CCOC(=O)c1cccc(NC(=O)c2cc(C(C)(C)C)nn2CC)c1 : 0
CCn1nc(C(C)(C)C)cc1C(=O)Nc1cccc(C(C)=NO)c1 : 100

Memo: CCn1nc(C(C)(C)C)cc1C(=O)Nc1cccc(C(=O)OC(C)C)c1C , reported Pigweed plant response rating: 0

Data point: C=CCOC(=O)c1cccc(NC(=O)c2cc(C(C)(C)C)nn2CC)c1C ; Pigweed plant response rating = 35

The reported value for CCCCn1nc(C(C)(C)C)cc1C(=O)Nc1cccc(C(=O)N(CC)CC)c1 in terms of Pigweed plant response rating is 0

# Pigweed plant response rating of Cn1nc(C(C)(C)C)cc1C(=O)Nc1cccc2c1CCCC2=NO = 0

----------
- Tested on: morningglory
- PROCEDURE DETAILS: Test A pre-/postemergence herbicide test
- Assay type: in vivo, Ipomoea spp.
- CONDITION SET: Postemergence, 2000 g ai/ha; 0 to 100 scale, 0 no effect, 100 complete control
Lab note: anything with Plant response rating, Morningglory below 30 is marked Criterion met; values at 30 or higher are marked Criterion not met.

Before answering, review these 4 worked examples.
C=CCNC(=O)c1cccc(NC(=O)c2sc(C(C)(C)C)nc2C)c1 : Criterion not met
COC(=O)c1cccc(NC(=O)c2cc(C(C)(C)C)nn2C)n1 : Criterion met
CCn1nc(C(C)(C)C)cc1C(=O)Nc1cccc(OC(F)(F)F)c1 : Criterion not met
Cn1nc(C(C)(C)C)cc1C(=O)Nc1cccc2c1CCCC2=NO : Criterion met

Please indicate whether the reported Plant response rating, Morningglory of C=CCn1nc(C(C)(C)C)cc1C(=O)Nc1cccc(C(C)=NO)c1 is strictly below 30.
Criterion not met

----------
- Test system: cocklebur
- PROCEDURE DETAILS: Test B pre-/postemergence herbicide test
- Assay type: in vivo, Xanthium strumarium
- CONDITION SET: 125 g ai/ha; 0 is no effect, 100 is complete control; preemergence
QUANTITY NAME: Plant response rating (0 to 100 scale), Cocklebur
Reply briefly: the number, and no unit.

Worked examples follow.
CCC1=NN(C(C)(C)C)CC1C(=O)Nc1cc(C(=O)N2CC=CC2)ccc1F (racemic) : 20
CCC1=NN(C(C)(C)C)CC1C(=O)Nc1cc(C(=O)N2CCCC2)ccc1F (racemic) : 40
Cc1nn(C(C)(C)C)nc1C(=O)Nc1cncc(C(=O)N(C)C)c1 : 0
CCN(CC)C(=O)c1cccc(NC(=O)c2nn(C(C)(C)C)nc2C)c1 : 0
Cc1nn(C(C)(C)C)cc1C(=O)Nc1cc(C(=O)N(C)C)ccc1F : 20

So for CCC1=NN(C(C)(C)C)CC1C(=O)Nc1cc(C(=O)N(C)CC)ccc1F (racemic) , the logged Plant response rating (0 to 100 scale), Cocklebur turned out to be 40

# Plant response rating (0 to 100 scale), Cocklebur of COC(=O)c1ccc(F)c(NC(=O)c2nn(C(C)C)nc2C)c1 = 0

Notebook: CCN1N=C(C(C)(C)C)CC1C(=O)Nc1cc(C(=O)N2CCCCC2)ccc1F (racemic) , Plant response rating (0 to 100 scale), Cocklebur read as 0

The recorded Plant response rating (0 to 100 scale), Cocklebur for entry CCNC(=O)c1ccc(F)c(NC(=O)C2CN(C(C)(C)C)N=C2CC)c1 (stereo not drawn) equals 10

----------
This listing pairs molecules with measured Barnyardgrass plant response rating.
- Tested on: barnyardgrass
- PROCEDURE DETAILS: Test B pre-/postemergence herbicide test
- Format: in vivo, Echinochloa crus-galli
- CONDITION SET: postemergence, 500 g ai/ha; scale 0 to 100, 0 is no effect, 100 is complete control

Examples with their reported Barnyardgrass plant response rating follow.
CCc1nn(C(C)C)nc1C(=O)Nc1cccc(C(=O)N2CC=CC2)c1 [Compound 359] : 10
CCc1nn(C(C)(C)CC)nc1C(=O)Nc1cccc(C(=O)N(C)C)c1 [Compound 372] : 60
CCN1N=C(C(C)(C)C)CC1C(=O)Nc1cc(C(=O)N2CCCC2)ccc1F (racemic) [Compound 309] : 40

--- query ---
# Cc1nn(C(C)(C)C)cc1C(=O)Nc1cc(C(=O)N(C)C)ccc1F [Compound 344] with barnyardgrass: Barnyardgrass plant response rating is 10
